tested on: SlSWIBb-L44A (Solanum lycopersicum); assay: MST; conditions: MST: 50 mM Tris-HCl pH 8.0, 150 mM NaCl, 0.05% Tween-20, 25 C
observedProperty: Kd (nM)
Write down the numeric answer in nM and omit the unit.

Query :: Supply reported Kd belonging to this sequence: GAATATATGAACATATTAAAAGTGACATTATAAGAAATGATAAAATTCAAAATTAAGGTG (double strand) [60bp InDel, Cy5]
Result :: 47
